These entries and their values trace back to PubChem BioAssay (Tox21).

assay: qHTS assay to test for compound auto fluorescence at 535 nm (green) in HepG2 cell free culture (AID 720686); settings: Cell-free medium, green autofluorescence 485/535 nm; series mostly up to 46 µM
Calls of active or inactive are those of the source. The call rests on the fitted dose curve; in most records, active means well fitted curve in the direction sought with a large enough effect in the repeat runs; inconclusive means weak or mixed curves; inactive means flat fitted curve, though single readings scatter. Non-standard residues stand in square brackets, D forms with d. Residues, ends and D or L forms follow the SMILES beside them. pGlu = O=C1CC[C@@H](C(=O)O)N1; Thz = O=C(O)[C@@H]1CSCN1
Response enum: active, inactive

CCCC(=O)O[C@]1(C(=O)COC(=O)CC)[C@@H](C)C[C@H]2[C@@H]3CCC4=CC(=O)C=C[C@]4(C)[C@@]3(F)[C@@H](O)C[C@@]21C ... inactive
Cc1ncc(COP(=O)(O)O)c(CN)c1O ... inactive
CCN1C(=O)NC(c2ccccc2)C1=O (centres undefined) ... inactive
CCCCC(=O)O[C@H]1CC[C@H]2[C@@H]3CCc4cc(O)ccc4[C@H]3CC[C@]12C ... inactive
CN1CCCC(CN2c3ccccc3Sc3ccccc32)C1 (centres undefined) ... inactive
CCCCCCCCCCCCCCCCCC(=O)OCC(C)O (centres undefined) ... inactive
N[C@@H](C(=O)N[C@@H]1C(=O)N2C(C(=O)O)=C(CSc3cn[nH]n3)CS[C@H]12)c1ccc(O)cc1 ... inactive
CC(C)C(=O)OCC(=O)[C@@]12O[C@H](C3CCCCC3)O[C@@H]1C[C@H]1[C@@H]3CCC4=CC(=O)C=C[C@]4(C)[C@H]3[C@@H](O)C[C@@]12C ... inactive
CC1(C)S[C@@H]2[C@H](NC(=O)C(N)c3ccccc3)C(=O)N2[C@H]1C(=O)OC1OC(=O)c2ccccc21 (some centres undefined) ... inactive
CN[C@@H]1[C@H](O[C@H]2[C@H](O[C@H]3[C@H](O)[C@@H](O)[C@H](N=C(N)N)[C@@H](O)[C@@H]3N=C(N)N)O[C@@H](C)[C@]2(O)C=O)O[C@@H](CO)[C@H](O)[C@H]1O ... inactive

Data request: Which result was noted for this molecule in the test: "CC1(C)C(\C=C/C=C\C=C/C=C2/N(CCCCS(=O)(=O)O)c3ccc4ccccc4c3C2(C)C)=[N+](CCCCS(=O)(=O)[O-])c2ccc3ccccc3c21"
Data returned: inactive

Data request: Which result was noted for this molecule in the test: O=C(O)CN(CC(=O)O)CC1=CC2C(=CC1=O)Oc1cc(O)c(CN(CC(=O)O)CC(=O)O)cc1C21OC(=O)c2ccccc21 (centres undefined)
Data returned: active

Data request: Which result was noted for this molecule in the test: "Clc1cc(Cl)c(OCC#CI)cc1Cl"
Data returned: inactive

Data request: Which result was noted for this molecule in the test: O=C1CC[C@@H](C(=O)N2CSC[C@H]2C(=O)O)N1 ([pGlu]-[Thz]-OH)
Data returned: inactive
